# target-system: human ether-à-go-go-related gene (hERG) potassium channel (human, UniProt Q12809);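 also: peak tail current of the secondary pulse compared with the same well before compound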
# Sequence (Q12809 whole entry, looked up): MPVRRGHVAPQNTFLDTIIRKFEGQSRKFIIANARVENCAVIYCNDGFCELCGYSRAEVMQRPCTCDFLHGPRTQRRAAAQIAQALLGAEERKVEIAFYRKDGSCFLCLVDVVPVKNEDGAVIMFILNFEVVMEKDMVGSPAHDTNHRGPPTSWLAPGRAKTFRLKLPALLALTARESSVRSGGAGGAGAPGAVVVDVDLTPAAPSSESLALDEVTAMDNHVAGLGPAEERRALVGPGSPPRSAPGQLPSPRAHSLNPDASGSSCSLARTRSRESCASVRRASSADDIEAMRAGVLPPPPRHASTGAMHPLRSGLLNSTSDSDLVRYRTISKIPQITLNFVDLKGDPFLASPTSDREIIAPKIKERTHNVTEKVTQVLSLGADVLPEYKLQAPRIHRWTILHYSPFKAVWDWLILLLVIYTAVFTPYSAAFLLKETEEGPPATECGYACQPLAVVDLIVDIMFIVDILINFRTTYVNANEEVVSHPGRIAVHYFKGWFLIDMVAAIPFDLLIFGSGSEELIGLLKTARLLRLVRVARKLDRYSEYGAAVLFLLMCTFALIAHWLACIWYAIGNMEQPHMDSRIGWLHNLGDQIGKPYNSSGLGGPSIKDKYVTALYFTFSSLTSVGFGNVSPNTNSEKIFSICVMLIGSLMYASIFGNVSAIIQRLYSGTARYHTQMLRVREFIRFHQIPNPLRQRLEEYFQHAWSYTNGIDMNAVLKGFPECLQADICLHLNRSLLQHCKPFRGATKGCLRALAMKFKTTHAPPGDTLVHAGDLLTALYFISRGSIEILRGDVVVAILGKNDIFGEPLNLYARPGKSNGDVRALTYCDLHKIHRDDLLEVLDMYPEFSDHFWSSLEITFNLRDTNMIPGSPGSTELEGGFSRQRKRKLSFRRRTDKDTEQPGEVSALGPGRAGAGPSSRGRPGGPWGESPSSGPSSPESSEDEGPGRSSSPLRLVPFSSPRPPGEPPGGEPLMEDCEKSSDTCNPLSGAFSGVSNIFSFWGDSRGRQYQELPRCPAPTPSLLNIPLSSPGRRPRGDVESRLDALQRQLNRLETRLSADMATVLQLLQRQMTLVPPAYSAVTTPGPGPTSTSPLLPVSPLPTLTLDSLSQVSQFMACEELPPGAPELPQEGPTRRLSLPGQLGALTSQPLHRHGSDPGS
# experiment-notes: primary screen, population patch clamp on CHO cells stably expressing hERG; higher = less effect of the substance
About 14,000 (4.5%) of roughly 310,000 compounds showed an effect of 50% or more. Effects have a minus sign here. This excerpt belongs to a sample that is enriched for strong results.
Answer not satisfied if hERG current change (%, negative = inhibition) at 10uM is under -30%, and satisfied if it is -30% or more.

compound="Cc1ccc(S(=O)(=O)N(CC(O)CN2CCCCC2)c2ccccc2)cc1.Cl (stereo not drawn)" answer_label="not satisfied"
compound=CCOc1ccc(CC(=O)Nc2cccc(-c3ccc4nnc(C)n4n3)c2)cc1 answer_label="not satisfied"
compound="CC1CCCN(Cc2nc3c(c(=O)n(C)c(=O)n3C)n2Cc2c(F)cccc2Cl)C1 (stereo not drawn)" answer_label=satisfied

Prompt: // inclusive: hERG current change (%, negative = inhibition) at 10uM at least -30%? input: Cc1[nH]n(-c2ccc([N+](=O)[O-])cc2)c(=O)c1C=NCCN1CCN(C(=O)c2ccccc2)CC1
Response: not satisfied

Prompt: Item Cc1[nH]n(-c2ccc([N+](=O)[O-])cc2)c(=O)c1C=NCCN1CCN(C(=O)c2ccc(F)cc2)CC1 with hERG current change (%, negative = inhibition) at 10uM of -30% or above?
Response: not satisfied

Prompt: Say whether O=C(N/N=C/c1ccco1)c1ccccc1OCc1ccccc1Cl shows hERG current change (%, negative = inhibition) at 10uM of -30% or more.
Response: not satisfied

Prompt: Tell me whether hERG current change (%, negative = inhibition) at 10uM is at least -30% here: Cc1[nH]n(-c2ccc([N+](=O)[O-])cc2)c(=O)c1C=NCCc1c(C)[nH]c2ccccc12
Response: satisfied

Prompt: Assess whether reported hERG current change (%, negative = inhibition) at 10uM for CCOC(=O)c1cnc2cc(C)nn2c1-c1ccccc1 sits at -30% or higher.
Response: satisfied
